test: Cytotoxicity against human BEL-7404 cells after 48 hrs by MTT assay; assay type: functional, cell-based; details: BEL-7404, 48 h
Measured parameter: IC50 (µM)

[[record]]
chemical_smiles = "CCCCCCCCCC[C@H](O)COCCOC[C@@H](O)CCCCCCCCCCCCC1=C[C@H](C)N(CCCNC(=O)CCCCCNC(=O)OC(C)(C)C)C1=O"
reported_measurement = 3.2

[[record]]
chemical_smiles = "CCCCCCCCCC[C@H](O)COCCOC[C@@H](O)CCCCCCCCCCCCC1=C[C@H](C)N(CCCNC(=O)C(F)(F)F)C1=O"
reported_measurement = 1.35

[[record]]
chemical_smiles = "CCCCCCCCCC[C@H](O)COCCOC[C@@H](O)CCCCCCCCCCCCC1=C[C@H](C)N(CCCNC(=O)CCCCCNC(=O)CCCCCNC(=O)OC(C)(C)C)C1=O"
reported_measurement = 2.5

[[record]]
chemical_smiles = "CCCCCCCCCC[C@H](O)COCCOC[C@@H](O)CCCCCCCCCCCCC1=CC(C)(C)N(C)C1=O"
reported_measurement = 0.845

